Cited source: ChEMBL document CHEMBL1122815

# reported Decrease in blood glucose; entries follow
# Tested on: Cavia porcellus
# protocol: Hypoglycemic activity was given as differences between the mean changes in blood glucose concentration in control group and the treated group after a dose of 25 mg/kg, ip
# Type: functional
# condition description: route intraperitoneal

sample smiles: CCCOCCCCN/N=C(\C)C(=O)O
uom: %
Decrease in blood glucose: 22
//
sample smiles: CCCCN/N=C(\C)C(=O)O
uom: %
Decrease in blood glucose: 41
//
sample smiles: CCCCCN/N=C(\C)C(=O)[O-].[Na+]
uom: %
Decrease in blood glucose: 45
//
sample smiles: C/C(=N\NCCCCc1ccccc1)C(=O)[O-].[Na+]
uom: %
Decrease in blood glucose: 34
//
sample smiles: C/C(=N\NC/C=C/c1cccc(Cl)c1)C(=O)O
uom: %
Decrease in blood glucose: 14
//
sample smiles: CC/C=C/CCN/N=C(\C)C(=O)O
uom: %
Decrease in blood glucose: 82
//
sample smiles: C/C(=N\NCCc1ccc(C)cc1)C(=O)O
uom: %
Decrease in blood glucose: 8
//
sample smiles: CCCCCCCCN/N=C(\C)C(=O)O
uom: %
Decrease in blood glucose: 69
//
sample smiles: CCOC(=O)/C(C)=N/NCCc1ccccc1
uom: %
Decrease in blood glucose: 14
//
sample smiles: C/C(=N\NC/C=C/c1cccc(C)c1)C(=O)O
uom: %
Decrease in blood glucose: 22
//
sample smiles: C/C(=N\NCCCC1CCCC1)C(=O)O
uom: %
Decrease in blood glucose: 68
//
sample smiles: COCCCCCCN/N=C(\C)C(=O)O
uom: %
Decrease in blood glucose: 22
//
sample smiles: C/C(=N\NCc1ccccc1)C(=O)O
uom: %
Decrease in blood glucose: 7
//
sample smiles: C/C(=N\NCCCC1CCCCC1)C(=O)[O-].[Na+]
uom: %
Decrease in blood glucose: 13
//
sample smiles: CCCCCCN/N=C(\C)C(=O)O
uom: %
Decrease in blood glucose: 72
//
sample smiles: C/C(=N\NC/C=C/c1ccccc1)C(=O)[O-].[Na+]
uom: %
Decrease in blood glucose: 15
//
sample smiles: CCCN/N=C(\C)C(=O)O
uom: %
Decrease in blood glucose: 24
//
sample smiles: C/C(=N\NCCOc1ccccc1)C(=O)O
uom: %
Decrease in blood glucose: 22
//
sample smiles: C/C(=N\NC/C=C/c1ccc(Cl)cc1)C(=O)O
uom: %
Decrease in blood glucose: 9

* * *

Collected LD50 values appear next to each entry.
# protocol: Lethal dose on oral administration to rats was determined
# Type: toxicity, organism-based
# condition description: rat, in vivo
measurement label: LD50 (mg/kg)

sample smiles: C/C(=C/c1ccccc1)CN/N=C(\C)C(=O)O
uom: mg/kg
reported result: 680

sample smiles: C/C(=N\NCCC1CCCCC1)C(=O)O
uom: mg/kg
reported result: 520

* * *

# Test system: Cavia porcellus
# protocol: Hypoglycemic activity was given as differences between the mean changes in blood glucose concentration in control group and the treated group after a dose of 25 mg/kg, ip
# Assay type: functional
# condition description: route intraperitoneal
Hi, to clarify the labels: 1 (yes) covers Decrease in blood glucose from 40% upward, 0 (no) covers anything below 40%.

compound: C/C(=N\NCCc1ccc(F)cc1)C(=O)O
assigned label: 0 (no)

compound: C/C(=N\NCCc1cccc(C)c1)C(=O)[O-].[Na+]
assigned label: 0 (no)

compound: CCCCCC(C)N/N=C(\C)C(=O)O (centres undefined)
assigned label: 1 (yes)

compound: C/C(=N\NCCC1CCCCC1)C(=O)O
assigned label: 1 (yes)

compound: N=C(N)NC(=N)NCCc1ccccc1 [PHENFORMIN]
assigned label: 1 (yes)

compound: COc1ccc(CCN/N=C(\C)C(=O)O)cc1
assigned label: 0 (no)

compound: C/C(=C\CN/N=C(\C)C(=O)O)c1ccccc1
assigned label: 0 (no)

compound: CCCCCCCN/N=C(\C)C(=O)O
assigned label: 1 (yes)

compound: C/C(=N\NCCc1ccc(Cl)cc1)C(=O)O
assigned label: 0 (no)

compound: CCC/C=C/CN/N=C(\C)C(=O)O
assigned label: 1 (yes)

compound: C/C(=N\NCC/C=C/c1ccccc1)C(=O)O
assigned label: 0 (no)

compound: C=CCCCCN/N=C(\C)C(=O)[O-].[Na+]
assigned label: 1 (yes)

* * *

# System: Cavia porcellus
# protocol: Hypoglycemic activity was given as differences between the mean changes in blood glucose concentration in control group and the treated group after a dose of 50 mg/kg, ip
# Format: functional
# condition description: route intraperitoneal
// values below are reported Decrease in blood glucose
measurement label: Decrease in blood glucose (%)

compound: C/C(=N\NC(C)Cc1ccccc1)C(=O)[O-].[Na+] (stereo not drawn)
target of assay: Cavia porcellus
measurement label: Decrease in blood glucose
reported result: 14
//
compound: C/C(=N\NCC(C)Cc1ccccc1)C(=O)O (stereo not drawn)
target of assay: Cavia porcellus
measurement label: Decrease in blood glucose
reported result: 22
//
compound: C/C(=N\NCC(C)c1ccccc1)C(=O)[O-].[Na+] (stereo not drawn)
target of assay: Cavia porcellus
measurement label: Decrease in blood glucose
reported result: 15
//
compound: C/C(=N\NCCCc1ccccc1)C(=O)[O-].[Na+]
target of assay: Cavia porcellus
measurement label: Decrease in blood glucose
reported result: 23
//
compound: C/C(=N\NCCc1ccccc1C)C(=O)O
target of assay: Cavia porcellus
measurement label: Decrease in blood glucose
reported result: 14
//
compound: C/C(=N\NCCc1ccccc1)C(N)=O
target of assay: Cavia porcellus
measurement label: Decrease in blood glucose
reported result: 15
//
compound: C/C(=N\NC/C=C/c1cccc(Cl)c1)C(=O)O
target of assay: Cavia porcellus
measurement label: Decrease in blood glucose
reported result: 6
//
compound: C/C(=N\NCCc1cccc(C(F)(F)F)c1)C(=O)O
target of assay: Cavia porcellus
measurement label: Decrease in blood glucose
reported result: 13
